Entries and their measured pKd follow.
# measured.on: GDP-bound KRAS wild-type protein (Homo sapiens, UniProt P01116)
# Sequence (P01116 whole entry): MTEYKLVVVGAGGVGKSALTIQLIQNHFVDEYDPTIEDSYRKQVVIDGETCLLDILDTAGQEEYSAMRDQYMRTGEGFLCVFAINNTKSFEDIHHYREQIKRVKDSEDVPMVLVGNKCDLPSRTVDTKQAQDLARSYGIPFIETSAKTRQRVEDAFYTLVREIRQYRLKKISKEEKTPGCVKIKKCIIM
# assay.method.text: Binding to KRAS by surface plasmon resonance (SPR), Single Cycle Kinetics
# condition.set: SPR, Single Cycle Kinetics, 1:1 binding model; GDP-bound KRAS wild-type protein; read-out: KRAS KD
pKd: −log10 of the molar value.

| chemical.structure | pKd |
| --- | --- |
| CCC[C@H]1C(=O)N[C@@H]([C@@H](C)CC)C(=O)N(C)CC(=O)N(C)[C@H]2C/C=C\CCN(C2=O)[C@@H](Cc2ccc(C(F)(F)F)cc2)C(=O)N(C)CC(=O)N[C@@H](CCc2cc(F)c(C(F)(F)F)c(F)c2)C(=O)N2C[C@H](OCC)C[C@H]2C(=O)NC2(CCC2)C(=O)N(C)[C@@H](C2CCCC2)C(=O)N(C)[C@H](C(=O)N(CC)CC)CC(=O)N1C | 9.89 |
| CCC[C@H]1C(=O)N[C@@H]([C@@H](C)CC)C(=O)N(C)CC(=O)N(C)[C@H]2C/C=C\CCN(C2=O)[C@@H](CC2CCCCC2)C(=O)N(C)CC(=O)N[C@@H](CCc2cc(F)c(C(F)(F)F)c(F)c2)C(=O)N2C[C@H](OCC)C[C@H]2C(=O)NC2(CCC2)C(=O)N(C)[C@@H](C2CCCC2)C(=O)N(C)[C@H](C(=O)N(C)C)CC(=O)N1C | 9.82 |
| CCCCCC[C@H]1C(=O)N[C@@H]([C@@H](C)CC)C(=O)N(C)CC(=O)N(C)[C@H]2C/C=C\CCN(C2=O)[C@@H](Cc2ccc(C(F)(F)F)cc2)C(=O)N(C)CC(=O)N[C@@H](CCc2ccc3sccc3c2)C(=O)N2C[C@H](OCC)C[C@H]2C(=O)NC2(CCC2)C(=O)N(C)[C@@H](C(CC)CC)C(=O)N(C)[C@H](C(=O)N(C)C)CC(=O)N1C | 8.62 |
| CCO[C@@H]1C[C@H]2C(=O)NC3(CCC3)C(=O)N(C)[C@@H](C3CCCC3)C(=O)N(C)[C@H](C)CC(=O)N(C)[C@@H](CC3CCCC3)C(=O)N[C@@H]([C@@H](C)CC)C(=O)N(C)CC(=O)N(C)[C@H]3C/C=C\CCN(C3=O)[C@@H](Cc3ccc(C)cc3)C(=O)N(C)CC(=O)N[C@@H](CCc3cc(F)c(C(F)(F)F)c(F)c3)C(=O)N2C1 | 9.38 |
| CCCC[C@H]1C(=O)N[C@@H]([C@@H](C)CC)C(=O)N(C)CC(=O)N(C)[C@H]2C/C=C\CCN(C2=O)[C@@H](Cc2ccc(C(F)(F)F)cc2)C(=O)N(C)CC(=O)N[C@@H](CCc2cc(F)c(C(F)(F)F)c(F)c2)C(=O)N2C[C@H](OCC)C[C@H]2C(=O)NC2(CCC2)C(=O)N(C)[C@@H](C2CCCC2)C(=O)N(C)[C@H](C(=O)N(C)C)CC(=O)N1C | 10.33 |
| CCO[C@@H]1C[C@H]2C(=O)NC3(CCC3)C(=O)N(C)[C@@H](C(CC)CC)C(=O)N(C)[C@H](C(=O)N(C)C)CC(=O)N(C)[C@@H](CC3CCCC3)C(=O)N[C@@H]([C@@H](C)CC)C(=O)N(C)CC(=O)N(C)[C@H]3C/C=C\CCN(C3=O)[C@@H](Cc3ccc(F)cc3)C(=O)N(C)CC(=O)N[C@@H](CCc3cc(F)c(C(F)(F)F)c(F)c3)C(=O)N2C1 | 9.37 |

---

Where a SMILES comes first, the peptide text is derived from it. Bridges are numbered along the chain shown (N, C = ends). [ ]: non-standard residue; d: D form. The star is where a group is joined. hPhe(3-Cl-4-CF3) = N[C@@H](CCc1ccc(C(F)(F)F)c(Cl)c1)C(=O)O; NPrPhe(4-CF3) = CCCN[C@@H](Cc1ccc(C(F)(F)F)cc1)C(=O)O; NMeGly(cPent) = CN[C@H](C(=O)O)C1CCCC1; Pro(4S-Me) = C[C@@H]1CN[C@H](C(=O)O)C1; NMeD = CN[C@@H](CC(=O)O)C(=O)O; NMeL = CN[C@@H](CC(C)C)C(=O)O; Morpholide = C1CN(*)CCO1; Ac5c = NC1(C(=O)O)CCCC1; Aze = O=C(O)[C@@H]1CCN1; Sar = CNCC(=O)O
Let's go through some recorded IC50 values for human lung cancer strain NCI-H441 together.

| molecule | IC50 (nM) |
| --- | --- |
| CC[C@H](C)[C@@H]1NC(=O)[C@H](CC)N(C)C(=O)C[C@@H](C(=O)N(C)C)N(C)C(=O)[C@H](C2CCCC2)N(C)C(=O)C2(CCC2)NC(=O)[C@@H]2C[C@@H](C(F)(F)F)CN2C(=O)[C@H](CCc2cc(F)c(C(F)(F)F)c(F)c2)NC(=O)CN(C)C(=O)[C@H](CC2CCCCC2)N2CC/C=C\C[C@@H](C2=O)N(C)C(=O)CN(C)C1=O [PP1465] | 34.1 |
| CCCN1C(=O)CN(C)C(=O)[C@@H]2CCN2C(=O)[C@H]([C@@H](C)CC)NC(=O)[C@H](CC(C)C)N(C)C(=O)C[C@@H](C(=O)N2CCOCC2)N(C)C(=O)[C@H](C2CCCC2)N(C)C(=O)C2(CCCC2)NC(=O)[C@@H]2C[C@H](C)CN2C(=O)[C@H](CCc2ccc(C(F)(F)F)c(Cl)c2)NC(=O)CN(C)C(=O)[C@@H]1Cc1ccc(C(F)(F)F)cc1 [PP0453] ([NMeL]I[Aze][Sar][NPrPhe(4-CF3)][Sar][hPhe(3-Cl-4-CF3)][Pro(4S-Me)][Ac5c][NMeGly(cPent)][NMeD]-Morpholide; lactam N-11) | 20.3 |

---

# measured.on: GDP-bound KRAS wild-type protein (Homo sapiens, UniProt P01116)
# assay.method.text: Binding to KRAS by surface plasmon resonance (SPR), Single Cycle Kinetics
# condition.set: SPR, Single Cycle Kinetics, GDP-bound KRAS wild-type protein; read-out: KRAS KD
pKd: −log10 of the molar value.

| molecule | pKd |
| --- | --- |
| CCC(CC)[C@H]1C(=O)N(C)[C@H](C(=O)N(C)C)CC(=O)N(C)[C@@H](COC)C(=O)N[C@@H]([C@@H](C)CC)C(=O)N(C)CC(=O)N(C)[C@H]2C/C=C\CCN(C2=O)[C@@H](CC2CCC(F)(F)CC2)C(=O)N(C)CC(=O)N[C@@H](CCc2cc(F)c(C(F)(F)F)c(F)c2)C(=O)N2C[C@@H](C)C[C@H]2C(=O)NC2(CC(C)(C)C2)C(=O)N1C [PP2448] | 8.85 |
| CCO[C@@H]1C[C@H]2C(=O)NC3(CCC3)C(=O)N(C)[C@@H](C3CCCC3)C(=O)N(C)[C@H](C(=O)N(C)CC)CC(=O)N(C)[C@@H](C(C)C)C(=O)N[C@@H]([C@@H](C)CC)C(=O)N(C)CC(=O)N(C)[C@H]3C/C=C\CCN(C3=O)[C@@H](Cc3ccc(C(F)(F)F)cc3)C(=O)N(C)CC(=O)N[C@@H](CCc3cc(F)c(C(F)(F)F)c(F)c3)C(=O)N2C1 [PP1990] | 9.85 |
| CCCN(C)C(=O)[C@@H]1CC(=O)N(C)[C@@H](COC)C(=O)N[C@@H]([C@@H](C)CC)C(=O)N(C)CC(=O)N(C)[C@H]2C/C=C\CCN(C2=O)[C@@H](Cc2ccc(C(F)(F)F)cc2)C(=O)N(C)CC(=O)N[C@@H](CCc2cc(F)c(Cl)c(F)c2)C(=O)N2C[C@H](OCC)C[C@H]2C(=O)NC2(CC(C)(C)C2)C(=O)N(C)[C@@H](C2CCCC2)C(=O)N1C [PP1763] | 9.64 |

---

pIC50: −log10 of the molar value. Where a SMILES comes first, the peptide text is derived from it. Bridges are numbered along the chain shown (N, C = ends). [ ]: non-standard residue; d: D form. The star is where a group is joined. hPhe(3-Cl-4-CF3) = N[C@@H](CCc1ccc(C(F)(F)F)c(Cl)c1)C(=O)O; NPrPhe(4-CF3) = CCCN[C@@H](Cc1ccc(C(F)(F)F)cc1)C(=O)O; NMeGly(cPent) = CN[C@H](C(=O)O)C1CCCC1; NMeD = CN[C@@H](CC(=O)O)C(=O)O; NMeL = CN[C@@H](CC(C)C)C(=O)O; Pip = O=C(O)[C@@H]1CCCCN1; Morpholide = C1CN(*)CCO1; Ac5c = NC1(C(=O)O)CCCC1; Aze = O=C(O)[C@@H]1CCN1; Sar = CNCC(=O)O
Let's go through some recorded pIC50 values for human lung cancer strain NCI-H441 together.
measurement.kind: pIC50

| molecule | measured.on | measurement.kind | result.value |
| --- | --- | --- | --- |
| CCO[C@@H]1C[C@H]2C(=O)NC3(CCC3)C(=O)N(C)[C@@H](C3CCCC3)C(=O)N(C)[C@H](C(=O)N3CCC3)CC(=O)N(C)[C@@H](CC)C(=O)N[C@@H]([C@@H](C)CC)C(=O)N(C)CC(=O)N(C)[C@H]3C/C=C\CCN(C3=O)[C@@H](CC3CCC(F)(F)CC3)C(=O)N(C)CC(=O)N[C@@H](CCc3cc(F)c(C(F)(F)F)c(F)c3)C(=O)N2C1 | human lung cancer strain NCI-H441 | pIC50 | 6.99 |
| CCCN1C(=O)[C@@H]2CCN2C(=O)[C@@H]2CCCCN2C(=O)[C@H]([C@@H](C)CC)NC(=O)[C@H](CC(C)C)N(C)C(=O)C[C@@H](C(=O)N2CCOCC2)N(C)C(=O)[C@H](C2CCCC2)N(C)C(=O)C2(CCCC2)NC(=O)[C@@H]2CCCN2C(=O)[C@H](CCc2ccc(C(F)(F)F)c(Cl)c2)NC(=O)CN(C)C(=O)[C@@H]1Cc1ccc(C(F)(F)F)cc1 [PP0077] ([NMeL]I[Pip][Aze][NPrPhe(4-CF3)][Sar][hPhe(3-Cl-4-CF3)]P[Ac5c][NMeGly(cPent)][NMeD]-Morpholide; lactam N-11) | human lung cancer strain NCI-H441 | pIC50 | 8.28 |
